meta.source: patent US20240408169A1

# assayed target: CyclinE1/CDK2 (Homo sapiens, UniProt P24864)
# Construct: purchased Eurofins, discovery 14-475
# run description: Fluorescence Polarization (FP) competitive binding assay, Cyclin E1/Cdk2;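 note: readings taken after two-hour equilibration at room temperature in HEPES buffer with NaCl, DTT, NP-40 and BSA, IC50 fitted from eight-concentration serial dilution series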
*1 amine or outer side, *2 acyl side, *3 side chain or, on linkers, in order; H or OH if unused. Where a SMILES comes first, the peptide text is derived from it. Bridges are numbered along the chain shown (N, C = ends). [ ]: non-standard residue; d: D form. The star is where a group is joined. X148 = CN([C@@H](Cc1cc(Cl)ccc1-c1ccc(S(C)(=O)=O)nc1)C(=O)[*:2])[*:1]; NMehhhLys(Me) = CN([C@@H](CCCCCCCN(C)[*:3])C(=O)[*:2])[*:1]; X135 = CN([C@@H](Cc1cc(Cl)ccc1-c1cn(C)cn1)C(=O)[*:2])[*:1]; X174 = CN([C@@H](Cc1cc(Cl)cnc1-c1cnn(C)c1)C(=O)[*:2])[*:1]; X188 = CN([C@@H](Cc1cc(Cl)ccc1-c1ccn(C)n1)C(=O)[*:2])[*:1]; Oxane2carbonyl(2R-CF3) = O=C([C@@]1(C(F)(F)F)CCCCO1)*; cBuCO(3,3-F2-1-CF3) = O=C(C1(C(F)(F)F)CC(F)(F)C1)*; Pro(trans-4-F) = O=C(O)[C@@H]1C[C@@H](F)CN1; Gly(cPr) = N[C@H](C(=O)O)C1CC1
result type: pIC50
Recall that pIC50 is obtained by taking minus log10 of the concentration measured in molar.

Form entry - test system: CyclinE1/CDK2 (Homo sapiens, UniProt P24864); read-out: pIC50; compound: CC(C)C[C@@H]1NC(=O)[C@@H](N(C)C(=O)[C@@H](NC(=O)[C@@H]2C[C@@H](F)CN2C(=O)[C@@]2(C(F)(F)F)CCCCO2)C2CC2)CCCCCCCN(C)C(=O)[C@H](Cc2cc(Cl)cnc2-c2cnn(C)c2)N(C)C1=O [Example 248] ({Oxane2carbonyl(2R-CF3)}-[Pro(trans-4-F)][Gly(cPr)][NMehhhLys(Me)]L[X174]; lactam 3-C)
7.00

// query: CC(C)C[C@@H]1NC(=O)[C@@H](N(C)C(=O)[C@@H](NC(=O)[C@@H]2C[C@@H](F)CN2C(=O)C2(C(F)(F)F)CC(F)(F)C2)C2CC2)CCCCCCCN(C)C(=O)[C@H](Cc2cc(Cl)ccc2-c2cn(C)cn2)N(C)C1=O [Example 242] ({cBuCO(3,3-F2-1-CF3)}-[Pro(trans-4-F)][Gly(cPr)][NMehhhLys(Me)]L[X135]; lactam 3-C)
6.15

// query: CC(C)C[C@@H]1NC(=O)[C@@H](N(C)C(=O)[C@@H](NC(=O)[C@@H]2C[C@@H](F)CN2C(=O)C2(C(F)(F)F)CC(F)(F)C2)C2CC2)CCCCCCCN(C)C(=O)[C@H](Cc2cc(Cl)ccc2-c2ccc(S(C)(=O)=O)nc2)N(C)C1=O [Example 201] ({cBuCO(3,3-F2-1-CF3)}-[Pro(trans-4-F)][Gly(cPr)][NMehhhLys(Me)]L[X148]; lactam 3-C)
5.71

// query: CCN(C(=O)[C@@H](NC(=O)[C@@H]1C[C@@H](F)CN1C(=O)C1(C(F)(F)F)CC(F)(F)C1)C1CC1)[C@H]1CCCCCCCN(C)C(=O)[C@H](Cc2cc(Cl)cnc2OC2CC2)N(C)C(=O)[C@H](CC(C)C)NC1=O
5.84

// query: CC(=O)N1[C@H]2CC[C@@H]1C=C(c1ccc(F)cc1C[C@H]1C(=O)N(C)CCCCCCC[C@H](N(C)C(=O)[C@@H](NC(=O)[C@@H]3C[C@@H](F)CN3C(=O)C3(C(F)(F)F)CC(F)(F)C3)C3CC3)C(=O)N[C@@H](CC(C)C)C(=O)N1C)C2
6.21

// query: CC(C)C[C@@H]1NC(=O)[C@@H](N(C)C(=O)[C@@H](NC(=O)[C@@H]2C[C@@H](F)CN2C(=O)C2(C(F)(F)F)CC(F)(F)C2)C2CC2)CCCCCCCN(C)C(=O)[C@H](Cc2cc(Cl)ccc2-c2ccn(C)n2)N(C)C1=O [Example 205] ({cBuCO(3,3-F2-1-CF3)}-[Pro(trans-4-F)][Gly(cPr)][NMehhhLys(Me)]L[X188]; lactam 3-C)
6.32
